// values below are reported T 1/2
ASSAY SYSTEM: T1, hPRLR.mFc (soluble dimeric human PRLR) (human)
T1 construct: dimeric PRLR construct
T1 chain: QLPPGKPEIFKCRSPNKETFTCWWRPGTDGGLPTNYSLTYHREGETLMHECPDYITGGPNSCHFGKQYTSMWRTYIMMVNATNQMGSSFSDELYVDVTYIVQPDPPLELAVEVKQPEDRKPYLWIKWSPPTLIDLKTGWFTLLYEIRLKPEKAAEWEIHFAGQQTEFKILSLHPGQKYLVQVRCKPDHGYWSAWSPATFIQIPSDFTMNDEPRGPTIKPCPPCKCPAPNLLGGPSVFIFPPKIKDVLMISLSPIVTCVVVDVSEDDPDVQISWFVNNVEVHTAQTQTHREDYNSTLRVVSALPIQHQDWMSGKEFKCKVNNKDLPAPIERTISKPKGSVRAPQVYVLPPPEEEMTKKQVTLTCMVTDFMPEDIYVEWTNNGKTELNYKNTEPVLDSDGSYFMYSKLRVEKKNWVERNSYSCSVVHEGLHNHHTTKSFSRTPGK
EXPERIMENT: SPR (Biacore), antibody capture, 37 C

BINDER	T 1/2, h
H1H6803P (antibody, human IgG1, V domains shown, human IgG1 Fc (H1H)) VH: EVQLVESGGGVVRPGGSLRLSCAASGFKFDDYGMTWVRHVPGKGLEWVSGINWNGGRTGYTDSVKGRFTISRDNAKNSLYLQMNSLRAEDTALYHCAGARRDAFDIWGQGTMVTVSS VL: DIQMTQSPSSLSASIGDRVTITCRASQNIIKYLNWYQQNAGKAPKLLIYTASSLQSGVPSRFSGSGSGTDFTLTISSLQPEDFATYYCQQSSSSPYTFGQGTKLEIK	3.1
H1H6801P (antibody, human IgG1, V domains shown, human IgG1 Fc (H1H)) VH: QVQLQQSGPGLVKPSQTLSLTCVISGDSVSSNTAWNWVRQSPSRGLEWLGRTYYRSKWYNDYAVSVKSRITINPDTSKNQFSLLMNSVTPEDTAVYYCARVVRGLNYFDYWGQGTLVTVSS VL: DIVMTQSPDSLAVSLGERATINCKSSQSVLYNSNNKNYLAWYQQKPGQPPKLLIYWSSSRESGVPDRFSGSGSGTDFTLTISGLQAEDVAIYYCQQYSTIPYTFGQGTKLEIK	0.867
H1H6795P (antibody, human IgG1, V domains shown, human IgG1 Fc (H1H)) VH: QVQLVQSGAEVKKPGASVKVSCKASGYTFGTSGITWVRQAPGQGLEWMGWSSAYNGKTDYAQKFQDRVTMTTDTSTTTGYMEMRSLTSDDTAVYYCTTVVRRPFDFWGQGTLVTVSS VL: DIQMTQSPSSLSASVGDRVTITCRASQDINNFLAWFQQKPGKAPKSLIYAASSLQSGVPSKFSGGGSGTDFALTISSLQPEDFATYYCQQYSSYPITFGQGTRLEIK	2.48

Every entry's value here was drawn from patent US20180185504A1.
